Measured Activity accompanies every entry in the list below.
- System: Rattus norvegicus
- PROTOCOL_SUMMARY: Antihypertensive activity in spontaneously hypertensive rat assessed as decrease in blood pressure at 5 mg/kg, po after 5 hrs by tail cuff method
- Format: functional
- Set-up: scale not given: the % may be the effect or the level left
PROPERTY_NAME: Activity (%)

cpd_smiles=CCCc1nn2c(=O)c3ccccc3nc2n1Cc1ccccc1 property_name=Activity endpoint_value=15.7
cpd_smiles=COc1cc2nc(N3CCN(C(=O)c4ccco4)CC3)nc(N)c2cc1OC property_name=Activity endpoint_value=12.9
cpd_smiles=O=c1c2ccccc2nc2n(Cc3ccccc3)c(CCl)nn12 property_name=Activity endpoint_value=6.7
cpd_smiles=O=c1c2ccccc2nc2n(Cc3ccccc3)c(CN3CCOCC3)nn12 property_name=Activity endpoint_value=19.4
cpd_smiles=Cc1ccc(-c2nn3c(=O)c4ccccc4nc3n2Cc2ccccc2)cc1 property_name=Activity endpoint_value=16.2
cpd_smiles=O=c1c2ccccc2nc2n(Cc3ccccc3)c(-c3ccccc3)nn12 property_name=Activity endpoint_value=14.1
cpd_smiles=COc1ccc(-c2nn3c(=O)c4ccccc4nc3n2Cc2ccccc2)cc1 property_name=Activity endpoint_value=15.4
cpd_smiles=CCOc1ccc(-c2nn3c(=O)c4ccccc4nc3n2Cc2ccccc2)cc1 property_name=Activity endpoint_value=16.5
cpd_smiles=Cc1nn2c(=O)c3ccccc3nc2n1Cc1ccccc1 property_name=Activity endpoint_value=15.3
cpd_smiles=O=c1c2ccccc2nc2n(Cc3ccccc3)c(CN3CCCCC3)nn12 property_name=Activity endpoint_value=13.1
cpd_smiles=O=c1c2ccccc2nc2n(Cc3ccccc3)cnn12 property_name=Activity endpoint_value=19.8
